Measured melting point of individual entries

Some solved cases for reference:
CCCCNc1c(C(=O)OCC)c(C)nc2[nH]c(O)nc12: 249 to 252 °C
COc1ccc(C=Cc2nnc(C(Cl)(Cl)Cl)o2)cc1: 140 to 142 °C
O=S(=O)(O)c1ccc(OC2=C(Oc3ccc(S(=O)(=O)O)cc3)C(F)(F)C(F)(F)C2(F)F)cc1: 251 to 255 °C

Consider now this further compound.
Form field: reported melting point of COc1cc2c(cc1C)C(=O)CCC2
104 to 107 °C

* * *

property name: melting point

Form field: reported melting point of OC1CCC(Nc2nc(Cl)nc(Cl)n2)CC1 (stereo not given)
120 °C

* * *

property name: melting point

Form field: reported melting point of COc1c(Cl)cc(C(=O)Nc2c(Cl)cncc2Cl)c2c3ccccc3n(CC3CCCCC3)c12
247 to 249 °C

* * *

Measured melting point of individual entries

Some solved cases for reference:
O=[N+]([O-])c1ccc2c(c1)Sc1cc(OC/C=C/I)ccc1N2: > 250 °C
CN(C)c1ccc2c(=O)[nH]c(=O)n(CCCCN3CCC(OC(c4ccccc4)c4ccccc4)CC3)c2c1: 203 to 204 °C

Form field: reported melting point of CCc1nc2ccccc2c(=O)n1CCCOc1ccc(SC(C)(C)C(=O)O)cc1
156 to 158 °C

Would you kindly repeat that for CCOC(=O)c1cc2c(=O)n(C(C)C)c3ccccc3n2c1 ?
169 to 170 °C

* * *

Measured melting point of individual entries

Some solved cases for reference:
Nc1c(Cl)cc(C(O)CNCCCCCCOCCCCCCc2ncccn2)cc1Cl (stereo not given): 55 to 57 °C
CN1CCN(C2CCC(Nc3ncc4ncnc(Nc5ccc(F)c(Cl)c5)c4n3)CC2)CC1 (stereo not given): 194 to 196 °C
O=S1(=O)C=C(N2CCCCC2)c2ccccc2O1: 187 to 189 °C
Nc1ncccc1C(=O)NCC1CCN(CC2COc3ccc(F)cc3O2)CC1 (stereo not given): 141 to 143 °C
CCOc1cc2c(cc1O)C(=O)CC(C)(C)O2: 129 to 130 °C

Form field: reported melting point of O=C(CNC(=O)c1ccc(N2CCN(C(=O)c3ccccc3C(F)(F)F)CC2)nn1)c1ccccc1
196 to 198 °C

Would you kindly repeat that for CCCCCCOc1c(F)ccc(C(N)=O)c1F ?
86 to 87 °C

Would you kindly repeat that for CC=CCN1CCNC1=C[N+](=O)[O-] ?
82 to 85 °C

Would you kindly repeat that for Cc1oc(-c2ccccc2)nc1COc1ccc2cc(/C=C/C=O)oc2c1 ?
132 to 133 °C

Would you kindly repeat that for CC(C)(C)OC(=O)N1C[C@@H]([C@H](O)CO)CC1=O ?
92 to 94 °C

Would you kindly repeat that for O=C(O)C1=C(c2ccc3c(c2)OCO3)c2ccccc2S(=O)(=O)N1Cc1ccc2c(c1)OCO2 ?
229 to 230 °C

Would you kindly repeat that for Cn1c(CO)nc2ccc(-c3ccccc3)nc21 ?
174 to 177 °C

Would you kindly repeat that for O=C(O)COc1cccc(-c2ccc(Cl)c(C(=O)NCC34CC5CC(CC(C5)C3)C4)c2)c1 ?
99 to 101 °C

Would you kindly repeat that for COc1ccc2c(c1)C(=O)C(Cc1ccccn1)CO2 (stereo not given) ?
112 to 114 °C

Would you kindly repeat that for CN(C)c1ccc(NC(=O)N(CC2CCCC(CN(C(=O)Nc3ccc(N(C)C)cc3)C3CC4CCC3C4)C2)C2CC3CCC2C3)cc1 (stereo not given) ?
110 to 115 °C

Would you kindly repeat that for CS(=O)(=O)NN(c1ccc([N+](=O)[O-])cc1N)S(=O)(=O)c1cccc(S(=O)(=O)F)c1 ?
204 to 209 °C

Would you kindly repeat that for CCOC(=O)Cn1c(C)c(-c2ccnc3cc(Cl)ccc23)c2cc(NC(C)=O)ccc21 ?
281 to 284 °C

Would you kindly repeat that for CCc1noc(-c2cn(-c3cccc(OCCc4ccccc4)c3)cn2)n1 ?
124 to 125 °C

Would you kindly repeat that for CCOC(=O)c1c(CN(CC)CC)nc2sc3c(c2c1-c1ccc(OC)c(OC)c1)CCN(C(=S)Nc1ccccc1)C3 ?
104 to 106 °C

Would you kindly repeat that for c1cc2c(cc1NC1=NCCN1)CCC2 ?
41 to 42 °C
